Test system: M. mycetomatis genome strain MM55
Assay: CLSI M38-A2 based in vitro susceptibility screening (XTT or resazurin), growth at fixed concentration
Type: cell-based, Madurella mycetomatis
Details: Madurella mycetomatis, 100 uM, replicate 2; read-out: Percentage survival at 100um, 100 uM A
quantityMeasured: activity at 100 µM (%)
Numbers only here, please. The scale is %.

Request the reported activity at 100 µM associated with CCc1ccc(C2CC(C(F)(F)F)n3ncc(C(=O)NCc4ccc(OC)cc4)c3N2)cc1 (stereo not shown) 63

Request the reported activity at 100 µM associated with "O=C(N[C@H](CCS)C(=O)N[C@H](Cc1ccccc1)C(=O)O)c1cc2ccccc2[nH]1" 85.3

Request the reported activity at 100 µM associated with "O=S(=O)(Nc1ccccc1)c1ccc(NC(=S)Nc2ccccc2)cc1" 79.6

Request the reported activity at 100 µM associated with "O=C(NCc1ccc2c3c(cccc13)C(=O)N2)c1cccs1" 74

Request the reported activity at 100 µM associated with "O=c1cc(NCCCN[C@@H]2CCOc3c(Br)cc(Br)cc32)[nH]c2ccsc12" 86.8

Request the reported activity at 100 µM associated with "Nc1nc(-c2ccccc2)nc2c1ncn2[C@@H]1O[C@H](COS(=O)(=O)NC(=O)c2ccccc2O)[C@@H](O)[C@H]1O" 69.3

Request the reported activity at 100 µM associated with "O=[N+]([O-])c1cn(Cc2nc(O)nc(O)c2Br)cn1" 83.9

Request the reported activity at 100 µM associated with "CCc1cc(Nc2cc(=O)n(CCN3CCN(C(=O)c4ccccc4)CC3)c(=O)[nH]2)ccc1C" 83.3

Request the reported activity at 100 µM associated with "CC[C@@H]1C(=O)OC[C@@H]1Cc1cncn1C" 85

Request the reported activity at 100 µM associated with "O=C(O)c1ccc(-c2ccc(O[C@H]3O[C@H](CO)[C@@H](O)[C@H](O)[C@@H]3O)cc2)cc1" 82.1

Request the reported activity at 100 µM associated with "Clc1cccc(-c2nnc(-c3ccccc3)o2)c1" 65.1

Request the reported activity at 100 µM associated with "O=C1NC(=S)N/C1=C\c1cc(Br)cc(Br)c1O" 104

Request the reported activity at 100 µM associated with CCc1cc(Cc2cnc(N)nc2N)cc2c1N(C)CCC2C (stereo not shown) 83.5

Request the reported activity at 100 µM associated with "CC(C)Nc1ncnc2c1cnn2-c1ccc(Cl)cc1" 1.77

Request the reported activity at 100 µM associated with "NC[C@H]1OB(O)c2c(OCCCO)cccc21" 96.2

Request the reported activity at 100 µM associated with "COc1ccc(SC(=O)N[C@H](CCC(=O)O)C(=O)O)cc1" 55.8

Request the reported activity at 100 µM associated with O=C(Nc1ccc(-c2ccccc2)cc1)C1=C(O)C(Cc2ccccc2)OC1=O (stereo not shown) 70.8

Request the reported activity at 100 µM associated with "c1ccc(Cn2c(-c3ccccn3)nc3ccccc32)cc1" 5.19

Request the reported activity at 100 µM associated with "C=C[C@]1(C)C[C@@H](OC(=O)CS[C@@H]2C[C@H]3CC[C@@H](C2)N3C)[C@]2(C)[C@H](C)CC[C@]3(CCC(=O)[C@H]32)[C@@H](C)[C@@H]1O" 61.3

* * *

Test system: M. tropicana strain CBS206.47
Assay: CLSI M38-A2 based in vitro susceptibility screening at 25 μM
Format: cell-based, Madurella tropicana
Settings: selected if >75% (resazurin) or >80% (XTT) fungal growth inhibited
quantityMeasured: Inhibits growth of Madurella tropicana at 25 μM

> print(dat)
                                   compound                   targetsystem      endpointresult
1  CCC(C)NCC(O)Cn1c2ccc(Cl)cc2c2cc(Cl)ccc21 (centres unmarked) [MMV1578570]  M. tropicana strain CBS206.47  inhibit the growth
2  COC(=O)Nc1nc2ccc(Sc3ccccc3)cc2[nH]1 [MMV003143, Fenbendazole]  M. tropicana strain CBS206.47  inhibit the growth
3  COc1cc(C)c2c(Oc3cccc(C(F)(F)F)c3)c(OC)cc(NC(C)CCCN)c2n1 (centres unmarked) [MMV000043, Tafenoquine, reference compound]  M. tropicana strain CBS206.47  inhibit the growth

* * *

For each record, write down the corresponding IC90.
System: M. mycetomatis MM55
Experiment: IC50 determination, 2-fold dilution series 16 to 0.03125 μM
Type: cell-based, Madurella mycetomatis
Settings: Madurella mycetomatis, MM55, mean of three replicates; read-out: IC90 mean
Numbers only here, please. The scale is µM.

Request the reported IC90 associated with "N=C(N)NCCCCC(=O)Nc1cc(C(F)(F)F)cc(NC(=O)c2cc(C(=O)Nc3cc(C(F)(F)F)cc(NC(=O)CCCCNC(=N)N)c3O[C@@H]3CCNC3)ncn2)c1O[C@@H]1CCNC1" 22.2

Request the reported IC90 associated with Oc1c(C(Nc2ccccn2)c2ccccc2)ccc2cccnc12 (stereo not shown) 24.5

Request the reported IC90 associated with "Cc1nc2ccc(Oc3ccccc3)cc2c2c1CCN2CCc1ccccc1" 22

Request the reported IC90 associated with "N#Cc1c(F)c(Cl)c(NCc2ccccc2)c(C#N)c1F" 23.6

* * *

Tested on: M. mycetomatis genome strain MM55
Experiment: CLSI M38-A2 based in vitro susceptibility screening (XTT or resazurin), growth at fixed concentration
Assay type: cell-based, Madurella mycetomatis
Conditions: Madurella mycetomatis, 25 uM, replicate A; read-out: Percentage survival at 25um, 25 um A
For each record, write down the corresponding activity at 25 µM.
Numbers only here, please. The scale is %.

Request the reported activity at 25 µM associated with "CC[C@@H]1C(=O)OC[C@@H]1Cc1cncn1C" 90.3

Request the reported activity at 25 µM associated with "N#Cc1c(F)c(Cl)c(NCc2ccccc2)c(C#N)c1F" 2

Request the reported activity at 25 µM associated with CC(Oc1ccc(Cl)cc1Cl)C(=O)NCc1ccc2c(c1)OCO2 (stereo not drawn) 53.9

Request the reported activity at 25 µM associated with "O=C(c1ccccc1)N1CCN(c2ccccc2NC(=O)C(Cl)(Cl)Cl)CC1" 69

Request the reported activity at 25 µM associated with "O=C(CCc1ccc2c(c1)OCO2)NCc1ccc(-c2ccccc2F)cc1" 102

Request the reported activity at 25 µM associated with "NC(=O)c1[nH]c2ccc(S(N)(=O)=O)cc2c1-c1ccccc1" 70.3

Request the reported activity at 25 µM associated with CCOC(=O)Nc1cc(NC(C)CC(C)CN(CC)CC)c2nc(-c3ccccc3)c(-c3ccccc3)nc2n1 (stereo not drawn) -4.99

Request the reported activity at 25 µM associated with "CS(=O)(=O)c1ccc(Oc2ccc(Cl)cc2)cc1" 90

Request the reported activity at 25 µM associated with "O=S(=O)(Nc1ccc(O)cc1)c1cccc2cccnc12" 84.9

* * *

System: M. mycetomatis genome strain MM55
Experiment: CLSI M38-A2 based in vitro susceptibility screening (XTT or resazurin), growth at fixed concentration
Assay type: cell-based, Madurella mycetomatis
Conditions: Madurella mycetomatis, read-out: Percentage survival at 25um, 25 uM mean
Each record is given yes (1) if its reported activity at 25 µM is strictly below 90%. Records at or above 90% are given no (0).

Here's an entry: "C[C@H]1CC[C@]2(NC1)O[C@H]1C[C@H]3[C@@H]4CC[C@H]5C[C@@H](O)CC[C@]5(C)[C@H]4CC[C@]3(C)[C@H]1[C@@H]2C" . Is its activity at 25 µM below 90%? no (0)

Here's an entry: Nc1nc(F)nc2c1ncn2[C@@H]1O[C@H](CO)[C@@H](O)[C@@H]1O [MMV637413, Fludarabine, reference compound] . Is its activity at 25 µM below 90%? yes (1)

Here's an entry: "Nc1c(C(=O)NCc2ccco2)c2nc3ccccc3nc2n1CCN1CCCCC1" . Is its activity at 25 µM below 90%? yes (1)

Here's an entry: "CC[C@@]1(O)C(=O)OCc2c1cc1n(c2=O)Cc2cc3c([N+](=O)[O-])cccc3nc2-1" . Is its activity at 25 µM below 90%? no (0)

Here's an entry: "CC[C@H](CO)Nc1nc(NCc2ccccc2)c2ncn(C(C)C)c2n1" . Is its activity at 25 µM below 90%? yes (1)

* * *

System: M. mycetomatis genome strain MM55
Assay: CLSI M38-A2 based in vitro susceptibility screening (XTT or resazurin), growth at fixed concentration
Format: cell-based, Madurella mycetomatis
Settings: Madurella mycetomatis, 25 uM, replicate A; read-out: Percentage survival at 25um, 25 um A
Each record is given yes if its reported activity at 25 µM is strictly below 80%. Records at or above 80% are given no.

Here's an entry: COc1cc(Cc2cnc(N)nc2N)c2c(c1OC)OC(C1CC1)C=C2 (centres unmarked) . Is its activity at 25 µM below 80%? no

Here's an entry: "COc1ccc2nc(-c3ccccc3)cc(O)c2c1" . Is its activity at 25 µM below 80%? no

Here's an entry: "OC(Cn1cncn1)(Cn1cncn1)c1ccc(F)cc1F" . Is its activity at 25 µM below 80%? no

Here's an entry: "CC(C)(C)c1ccc(Oc2ccc(N)cc2)cc1" . Is its activity at 25 µM below 80%? no

Here's an entry: "CNc1nc(=O)[nH]cc1F" . Is its activity at 25 µM below 80%? no

Here's an entry: "CCOc1ccc(C(=O)NCCc2ccccc2)cc1" . Is its activity at 25 µM below 80%? no

Here's an entry: Oc1cccc(C(Nc2nccs2)c2ccc3cccnc3c2O)c1 (centres unmarked) . Is its activity at 25 µM below 80%? yes

Here's an entry: "CN(C)c1[nH]c(=O)ncc1F" . Is its activity at 25 µM below 80%? no

Here's an entry: "O=C(Nc1nnc(-c2ccc(Cl)cc2)o1)c1ccc(F)cc1" . Is its activity at 25 µM below 80%? yes

Here's an entry: "O=C(Cc1ccccc1F)Nc1nc2ccccc2[nH]1" . Is its activity at 25 µM below 80%? yes

Here's an entry: "CCc1ccccc1OCCN1CCCCCC1" . Is its activity at 25 µM below 80%? yes

Here's an entry: C[C@H](NC(CC(=O)c1ccccc1C(F)(F)F)C(=O)O)c1ccccc1 (some centres unmarked) . Is its activity at 25 µM below 80%? no

Here's an entry: "CONC(=N)c1ccc(-c2ccc(-c3ccc(C(=N)NOC)cc3)o2)cc1" . Is its activity at 25 µM below 80%? no

Here's an entry: O=C(c1ccc(F)cc1)N1CCN2C(=O)c3ccccc3C12c1ccccc1 (centres unmarked) . Is its activity at 25 µM below 80%? no

Here's an entry: "C[C@H](Cn1cnc2c(N)ncnc21)OCP(=O)(O)O" . Is its activity at 25 µM below 80%? no

Here's an entry: "O=C(c1nc2c(C(F)(F)F)cc(C3CC3)cn2c1Cl)N1CCN([C@H]2CC[C@H](O)CC2)C(=O)C1" . Is its activity at 25 µM below 80%? no

Here's an entry: Clc1cc(Cl)c2c(c1)CCc1ccccc1C2n1ccnc1 (centres unmarked) [MMV1634492, Eberconazole, reference compound] . Is its activity at 25 µM below 80%? yes

Here's an entry: "CCNC(=O)Nc1cc(-c2ccccc2)c(-c2cncc(C(=O)O)c2)cn1" . Is its activity at 25 µM below 80%? no

Here's an entry: "O=C(Cn1cnc2ccccc2c1=O)Nc1ccccc1" . Is its activity at 25 µM below 80%? no

Here's an entry: "Oc1ccc(NCc2ccccc2OCc2ccccc2)cc1" . Is its activity at 25 µM below 80%? no

Here's an entry: "O=C(O)[C@H]1C2CCC(CC2)[C@@H]1Nc1nc(-c2c[nH]c3ncc(F)cc23)ncc1F" . Is its activity at 25 µM below 80%? no

Here's an entry: "C=C[C@]1(C)C[C@@H](OC(=O)CS[C@@H]2C[C@H]3CC[C@@H](C2)N3C)[C@]2(C)[C@H](C)CC[C@]3(CCC(=O)[C@H]32)[C@@H](C)[C@@H]1O" . Is its activity at 25 µM below 80%? no

Here's an entry: "NC[C@H]1OB(O)c2c(OCCCO)cccc21" . Is its activity at 25 µM below 80%? no

Here's an entry: Oc1c(C(Nc2nc3ccccc3s2)c2ccc(OC(F)F)cc2)ccc2cccnc12 (centres unmarked) . Is its activity at 25 µM below 80%? yes

Here's an entry: "COc1cc(Cc2cc(N)nc(N)n2)cc(OC)c1OC" . Is its activity at 25 µM below 80%? no

Here's an entry: "CC(C)Nc1ncnc2c1cnn2-c1ccc(Cl)cc1" . Is its activity at 25 µM below 80%? yes

Here's an entry: "O=C1C=C(c2ccccc2)S(=O)(=O)c2ccccc21" . Is its activity at 25 µM below 80%? yes

Here's an entry: "Cc1onc(-c2ccccc2)c1-c1ccc(S(N)(=O)=O)cc1" . Is its activity at 25 µM below 80%? no

Here's an entry: "NCc1ccc(S(N)(=O)=O)cc1" . Is its activity at 25 µM below 80%? no

Here's an entry: "CC(=O)N[C@H](C)C(=O)N[C@H](Cc1ccccc1)C(=O)O" . Is its activity at 25 µM below 80%? no

Here's an entry: "Nc1cc(-c2nc3ccccc3[nH]2)n[nH]c1=O" . Is its activity at 25 µM below 80%? no

Here's an entry: "COc1ccccc1NC(=O)c1ccccc1Sc1ccc([N+](=O)[O-])cc1" . Is its activity at 25 µM below 80%? yes

Here's an entry: "CCc1cc(Nc2cc(=O)n(CCN3CCN(C(=O)c4ccccc4)CC3)c(=O)[nH]2)ccc1C" . Is its activity at 25 µM below 80%? no

Here's an entry: C[N+]1(C)CCCC(OC(=O)C(O)(c2ccccc2)c2ccccc2)C1 (centres unmarked) . Is its activity at 25 µM below 80%? yes

Here's an entry: "CC(C)Cn1c(=O)n(C)c(=O)c2c(-c3cncn3C)n(Cc3cccc4ccccc34)nc21" . Is its activity at 25 µM below 80%? no
